# Target system: CathepsinG, from human neutrophils (Homo sapiens, UniProt P08311)
# Sequence (P08311 21-244): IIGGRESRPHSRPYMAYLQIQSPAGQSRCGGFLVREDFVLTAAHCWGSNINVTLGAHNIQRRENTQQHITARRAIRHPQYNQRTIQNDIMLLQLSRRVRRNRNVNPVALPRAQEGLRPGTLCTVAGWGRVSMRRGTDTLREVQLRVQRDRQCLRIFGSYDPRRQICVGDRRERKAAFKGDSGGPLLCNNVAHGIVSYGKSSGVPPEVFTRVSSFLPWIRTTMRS
# Assay name: Enzymatic assay, cathepsin G
# Experimental conditions: Cathepsin G IC50
Where a SMILES comes first, the peptide text is derived from it.
Here the recorded IC50 is given for each entry.
Write the value in nM as a bare number.

C[C@@H](O)[C@@H]1NC(=O)[C@@H]2CSSC[C@H](NC(=O)[C@H](CC3CCCCC3)NC(=O)[C@@H]3CCCN3C(=O)[C@@H]3CCCN3C(=O)[C@H](CC(=O)O)NC(=O)[C@H](CO)NC(=O)[C@H](CCCCN)NC1=O)C(=O)N[C@@H](CCCNC(=N)N)C(=O)N1CCC[C@@H]1C(=O)N1CCC[C@H]1C(=O)N[C@@H](C1CCCCC1)C(=O)N2 [Ex. 71] (HELM PEPTIDE1{[O=C([C@@H](N[*:1])C1CCCCC1)[*:2]].C.T.K.S.D.P.P.[Cha].C.R.[dP].P}$PEPTIDE1,PEPTIDE1,2:R3-10:R3|PEPTIDE1,PEPTIDE1,1:R1-13:R2$$$V2.0) = 70

Turning now to a further molecule:
Data request: Quick check: IC50 of CC[C@H](C)[C@@H]1NC(=O)[C@@H]2CCCN2C(=O)[C@H]2CCCN2C(=O)[C@H](CCCCN)NC(=O)[C@@H]2CSSC[C@H](NC1=O)C(=O)N[C@@H]([C@@H](C)O)C(=O)N[C@@H](CCCCN)C(=O)N[C@@H](CO)C(=O)N[C@@H](CC(C)C)C(=O)N1CCC[C@H]1C(=O)N1CCC[C@H]1C(=O)N[C@@H](CCCNC(=N)N)C(=O)N2 [Ex. 190] (HELM PEPTIDE1{I.C.T.K.S.L.P.P.R.C.K.[dP].P}$PEPTIDE1,PEPTIDE1,2:R3-10:R3|PEPTIDE1,PEPTIDE1,1:R1-13:R2$$$V2.0) ?
Data returned: 1500

====

# Target system: CathepsinG, from human neutrophils (Homo sapiens, UniProt P08311)
# Assay name: Enzymatic assay, cathepsin G
# Experimental conditions: Cathepsin G IC50
Where a SMILES comes first, the peptide text is derived from it.
pIC50 for assorted molecules
Quick note: pIC50 values are minus log10 of concentrations in mol/L.

The examples below pair each entry with its known result.
CCCC[C@@H]1NC(=O)[C@@H]2CCCN2C(=O)[C@@H]2CCCN2C(=O)[C@H](CC(=O)O)NC(=O)[C@H](CO)NC(=O)[C@H](CCCCN)NC(=O)[C@H]([C@@H](C)O)NC(=O)[C@@H]2CSSC[C@H](NC1=O)C(=O)N[C@@H](CCCNC(=N)N)C(=O)N1CCC[C@@H]1C(=O)N1CCC[C@H]1C(=O)N[C@@H]([C@@H](C)CC)C(=O)N2 [Ex. 19] (HELM PEPTIDE1{I.C.T.K.S.D.P.P.[Nle].C.R.[dP].P}$PEPTIDE1,PEPTIDE1,2:R3-10:R3|PEPTIDE1,PEPTIDE1,1:R1-13:R2$$$V2.0) = 7.39
CC[C@H](C)[C@@H]1NC(=O)[C@@H]2CCCN2C(=O)[C@@H]2CCCN2C(=O)[C@H](CCC(=O)O)NC(=O)[C@H](CO)NC(=O)[C@H](CCCCN)NC(=O)[C@H]([C@@H](C)O)NC(=O)[C@@H]2CSSC[C@H](NC1=O)C(=O)N[C@@H](CO)C(=O)N1CCC[C@@H]1C(=O)N1CCC[C@H]1C(=O)N[C@@H](Cc1ccccc1)C(=O)N2 [Ex. 21] (HELM PEPTIDE1{F.C.T.K.S.E.P.P.I.C.S.[dP].P}$PEPTIDE1,PEPTIDE1,2:R3-10:R3|PEPTIDE1,PEPTIDE1,1:R1-13:R2$$$V2.0) = 7.01
CC[C@H](C)[C@@H]1NC(=O)[C@@H]2CCCN2C(=O)[C@@H]2CCCN2C(=O)[C@H](CC(=O)O)NC(=O)[C@H](CO)NC(=O)[C@H](CCCCN)NC(=O)[C@H]([C@@H](C)O)NC(=O)[C@@H]2CSSC[C@H](NC1=O)C(=O)N[C@@H](CO)C(=O)N1CCC[C@@H]1C(=O)N[C@@H](CCC(=O)O)C(=O)N[C@@H](Cc1ccccc1)C(=O)N2 [Ex. 64] (HELM PEPTIDE1{F.C.T.K.S.D.P.P.I.C.S.[dP].E}$PEPTIDE1,PEPTIDE1,2:R3-10:R3|PEPTIDE1,PEPTIDE1,1:R1-13:R2$$$V2.0) = 7.35
CC[C@H](C)[C@@H]1NC(=O)[C@@H]2CCCN2C(=O)[C@H]2CCCN2C(=O)[C@H](CCCNC(=N)N)NC(=O)[C@@H]2CSSC[C@H](NC1=O)C(=O)N[C@@H]([C@@H](C)O)C(=O)N[C@@H](CCCCN)C(=O)N[C@@H](CO)C(=O)N[C@@H](CC(=O)O)C(=O)N1CCC[C@H]1C(=O)N1CCC[C@H]1C(=O)N[C@@H](CC1CCCCC1)C(=O)N2 [Ex. 58] (HELM PEPTIDE1{I.C.T.K.S.D.P.P.[Cha].C.R.[dP].P}$PEPTIDE1,PEPTIDE1,2:R3-10:R3|PEPTIDE1,PEPTIDE1,1:R1-13:R2$$$V2.0) = 7.32
CC[C@H](C)[C@@H]1NC(=O)[C@@H]2CCCN2C(=O)[C@H]2CCCN2C(=O)[C@H](CCCNC(=N)N)NC(=O)[C@@H]2CSSC[C@H](NC1=O)C(=O)N[C@@H]([C@@H](C)O)C(=O)N[C@@H](CCCCN)C(=O)N[C@@H](CO)C(=O)N[C@@H](CC(C)C)C(=O)N1CCC[C@H]1C(=O)N1CCC[C@H]1C(=O)N[C@@H]([C@@H](C)O)C(=O)N2 [Ex. 189] (HELM PEPTIDE1{I.C.T.K.S.L.P.P.T.C.R.[dP].P}$PEPTIDE1,PEPTIDE1,2:R3-10:R3|PEPTIDE1,PEPTIDE1,1:R1-13:R2$$$V2.0) = 6.79
CC(C)C[C@@H]1NC(=O)[C@H](CO)NC(=O)[C@H](CCCCN)NC(=O)[C@H]([C@@H](C)O)NC(=O)[C@@H]2CSSC[C@H](NC(=O)[C@H](CCCCN)NC(=O)[C@@H]3CCCN3C(=O)[C@@H]3CCCN3C1=O)C(=O)N[C@@H](Cc1ccc(O)cc1)C(=O)N1CCC[C@@H]1C(=O)N1CCC[C@H]1C(=O)N[C@@H](CCCNC(=N)N)C(=O)N2 [Ex. 196] (HELM PEPTIDE1{R.C.T.K.S.L.P.P.K.C.Y.[dP].P}$PEPTIDE1,PEPTIDE1,2:R3-10:R3|PEPTIDE1,PEPTIDE1,1:R1-13:R2$$$V2.0) = 5.66
CC[C@H](C)[C@@H]1NC(=O)[C@@H]2CCCN2C(=O)[C@@H]2CCCN2C(=O)[C@H](CC(=O)O)NC(=O)[C@H](CO)NC(=O)[C@H](CCCCN)NC(=O)[C@H]([C@@H](C)O)NC(=O)[C@@H]2CSSC[C@H](NC1=O)C(=O)N[C@@H](Cc1ccc(O)cc1)C(=O)N1CCC[C@@H]1C(=O)N1CCC[C@H]1C(=O)N[C@@H](CC1CCCCC1)C(=O)N2 [Ex. 36] (HELM PEPTIDE1{[Cha].C.T.K.S.D.P.P.I.C.Y.[dP].P}$PEPTIDE1,PEPTIDE1,2:R3-10:R3|PEPTIDE1,PEPTIDE1,1:R1-13:R2$$$V2.0) = 7.39

Then there is this molecule:
Data request: Param item = CC[C@H](C)[C@@H]1NC(=O)[C@@H]2CCCN2C(=O)[C@H]2CCCN2C(=O)[C@H](CCCNC(=N)N)NC(=O)[C@@H]2CSSC[C@H](NC1=O)C(=O)N[C@@H]([C@@H](C)O)C(=O)N[C@@H](CCCCN)C(=O)N[C@@H](CO)C(=O)N[C@@H](CC(C)C)C(=O)N1CCC[C@H]1C(=O)N1CCC[C@H]1C(=O)N[C@@H](CCCCN)C(=O)N2 [Ex. 186] (HELM PEPTIDE1{I.C.T.K.S.L.P.P.K.C.R.[dP].P}$PEPTIDE1,PEPTIDE1,2:R3-10:R3|PEPTIDE1,PEPTIDE1,1:R1-13:R2$$$V2.0) ; retrieve measured pIC50.
Data returned: 6.47

====

# Assay name: in vivo
# Experimental conditions: male, Wistar, rat, po
Where a SMILES comes first, the peptide text is derived from it.
Measure: Cmax (µg/mL)
// return numeric value only (unit: µg/mL, not printed)

Data request: For the molecule shown here, CC[C@H](C)[C@@H]1NC(=O)[C@@H]2CCCN2C(=O)[C@@H]2CCCN2C(=O)[C@H](CC(=O)O)NC(=O)[C@H](CO)NC(=O)[C@H](CCCCN)NC(=O)[C@H]([C@@H](C)O)NC(=O)[C@@H]2CSSC[C@H](NC1=O)C(=O)N[C@@H](Cc1ccccc1)C(=O)N1CCC[C@@H]1C(=O)N1CCC[C@H]1C(=O)N[C@@H](CCCNC(=N)N)C(=O)N2 [Ex. 75] (HELM PEPTIDE1{R.C.T.K.S.D.P.P.I.C.F.[dP].P}$PEPTIDE1,PEPTIDE1,2:R3-10:R3|PEPTIDE1,PEPTIDE1,1:R1-13:R2$$$V2.0) , give the reported Cmax.
Data returned: 0.046
